Test summary: NCI Yeast Anticancer Drug Screen. Data for the rad50 strain (AID 155);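 further: 0% = growth of vehicle-only cultures of the same strain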
Condition: S. cerevisiae rad50 strain growth inhibition; at 50.0 µM; hits give high values
The panel holds about 79,000 compounds, 15% with a hit somewhere; the sample as a whole holds those more often.
Measure: growth inhibition (%)
Kindly provide the numeric value in % only, without the unit symbol.

Reference set (5 entries):
Compound	Measured number
C=CS(=O)(=O)CCOc1ccc(Cl)cc1Cl	98.8
CC(C)(C)NC(=O)Nc1nccs1	7.8
CCO/C=C1/C(=O)N(C)c2c1c(=O)n(C)c(=O)n2C	-46.9
OCCCc1ccccc1	-0.1
CN(C(=O)/C=C/c1ccccc1)c1ccccc1	45.6

Turning now to a further compound:
The compound O=CNc1ccc(F)c(F)c1 showed growth inhibition equal to -16.8
